Known pKi of a selection of compounds
- Target Or Test System: CSP2
- Format: binding, Chilo suppressalis
- Condition Parameters: read-out: CSP2 Ki; competitive binding with 1-NPN
pKi: −log10 of the molar value.
Quantity Kind: pKi

{"Compound": "CCCCCCCCCCCC(C)=O [2-Tridecanone]", "Quantity Kind": "pKi", "Measured Number": 4.68}
{"Compound": "CC/C=C\\CCO [Z3-Hexenol]", "Quantity Kind": "pKi", "Measured Number": 4.75}
{"Compound": "CCCCCC(C)O (stereo not shown) [2-Heptanol]", "Quantity Kind": "pKi", "Measured Number": 5.03}
{"Compound": "O=Cc1ccccc1 [Benzaldehyde]", "Quantity Kind": "pKi", "Measured Number": 4.61}
{"Compound": "CCC/C=C\\C=O [Z2-Hexenal]", "Quantity Kind": "pKi", "Measured Number": 4.54}
{"Compound": "CCCCCC/C=C\\CCCCCCCC=O [Z9-Hexadecenal]", "Quantity Kind": "pKi", "Measured Number": 5.02}
{"Compound": "CC=CC=CCO [2,4 hexadienol]", "Quantity Kind": "pKi", "Measured Number": 4.80}
